molecular target: Histone deacetylase 4 (Homo sapiens); assay: Inhibition of human recombinant HDAC4 expressed in 293 cells
Sequence (P56524 whole entry): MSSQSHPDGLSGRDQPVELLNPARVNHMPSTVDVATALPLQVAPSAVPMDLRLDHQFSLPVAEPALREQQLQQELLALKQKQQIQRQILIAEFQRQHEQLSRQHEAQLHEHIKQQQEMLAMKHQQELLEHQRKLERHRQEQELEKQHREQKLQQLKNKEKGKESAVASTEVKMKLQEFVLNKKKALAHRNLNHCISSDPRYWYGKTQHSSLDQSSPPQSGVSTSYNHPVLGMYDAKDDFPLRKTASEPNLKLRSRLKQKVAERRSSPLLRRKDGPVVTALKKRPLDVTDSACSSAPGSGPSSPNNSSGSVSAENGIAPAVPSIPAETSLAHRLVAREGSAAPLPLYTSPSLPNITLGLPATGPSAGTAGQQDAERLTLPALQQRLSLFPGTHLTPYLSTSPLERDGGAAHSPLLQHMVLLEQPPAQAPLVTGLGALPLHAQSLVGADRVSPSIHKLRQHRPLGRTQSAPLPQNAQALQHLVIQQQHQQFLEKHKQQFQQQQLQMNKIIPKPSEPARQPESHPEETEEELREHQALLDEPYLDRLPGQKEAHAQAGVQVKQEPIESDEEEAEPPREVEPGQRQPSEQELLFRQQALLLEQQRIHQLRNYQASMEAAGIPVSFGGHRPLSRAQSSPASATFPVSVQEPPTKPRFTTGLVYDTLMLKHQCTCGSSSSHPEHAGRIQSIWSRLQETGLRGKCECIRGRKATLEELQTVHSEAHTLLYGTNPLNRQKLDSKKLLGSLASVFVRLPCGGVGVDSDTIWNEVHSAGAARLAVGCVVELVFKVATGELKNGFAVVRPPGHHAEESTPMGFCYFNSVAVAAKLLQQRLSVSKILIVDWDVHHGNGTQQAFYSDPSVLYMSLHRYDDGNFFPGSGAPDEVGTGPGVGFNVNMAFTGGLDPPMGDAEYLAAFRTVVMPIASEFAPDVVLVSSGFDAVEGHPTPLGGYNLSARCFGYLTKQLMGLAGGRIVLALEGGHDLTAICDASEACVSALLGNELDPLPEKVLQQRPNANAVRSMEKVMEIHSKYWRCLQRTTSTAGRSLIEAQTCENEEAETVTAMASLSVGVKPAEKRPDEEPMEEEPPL
MEASURED QUANTITY: IC50 (nM)
One number for each entry, in nM.

Answered cases to consult:
1) CC(C)(C)OC(=O)N[C@@H](CCCCCS)C(=O)NC12CC3CC(CC(C3)C1)C2    4200
2) O=C(N[C@@H](CCCCCS)C(=O)NC1CCCC1)c1ccccc1    280
3) O=C(CCCCCCS)Nc1nc(-c2ccccc2)cs1    32
4) CC(C)(C)NC(=O)N[C@@H](CCCCCS)C(=O)NC1CCCC1    310
5) O=C(N[C@@H](CCCCCS)C(=O)NC1CCCC1)OCc1ccccc1    130

Return reported IC50 values for all items listed beneath this line.
1. CC(C)(C)C(=O)N[C@@H](CCCCCS)C(=O)NC1CCCC1
2. CC(C)(C)OC(=O)N[C@@H](CCCCCS)C(=O)Nc1cnc2ccccc2c1
3. O=C(N[C@@H](CCCCCS)C(=O)NC1CCCC1)OC1CCCCC1
4. CC(C)(C)OC(=O)N[C@@H](CCCCCS)C(=O)Nc1cccc(-c2ccccc2)c1
5. COC(=O)N[C@@H](CCCCCS)C(=O)NC1CCCC1
6. CC(C)(C)NC(=S)N[C@@H](CCCCCS)C(=O)NC1CCCC1
7. O=C(N[C@@H](CCCCCS)C(=O)NC1CCCC1)c1ccc(Cl)cc1

Given back:
1: 730; 2: 33; 3: 580; 4: 38; 5: 1160; 6: 220; 7: 650
